Reference for the values: paper PMC8196545

Molecular target: HIV-1 NL4-3 Env on infected cells (HIV-1 group M subtype B, NL4-3 (pNL4-3 …, strain))

{"columns": ["binder", "binding result"],
 "data": [
  ["c8639 (antibody, V domains shown) VH: LLQLHESGPGLVKPSEALSLTCTVSGASATNGLYWAWIRQPPGKGLEWVASLKKWRGYYNPSLGSRVTISHAPDNQISLRLESVTAADAAVYFCVGFFSSSAFDYWGRGTLVTVSS VL: AYVLTQPPSVSVAPGKTAKISCEGNNIGQKAVHWYQQKSGQAPVLFISDGTTRTSGIPARFSGSRSGNTATLTISWVEGGDEADYYCQVMSGDTALFGGGTKLTVL", "binds"],
  ["c5616 (antibody, V domains shown) VH: LVRLAESGGGVVRPGESLTLSCATSGFSFSSYGMHWVRQIPGKGLEWVAVIWNDGSRRYYSDSVQGRFTIAKDTSNKTLSLHMRDLQVGDTAVYFCARAYGPQSEMDSWGLGTLVTVSS VL: SSELTQPPSVSVSPGQTAILTCVGDILPRKHAYWYRQRAGRAPTLIVFGDNNRPSGIPARFSGFTSGTVATLVITAAQVDDGGDYFCYSADNSGNHRGVFGGGTRLTIL", "binds"]
]}
